Measured competition rate by item
target: T1, human MSLN-FL-his protein (human, UniProt Q13421 296-580); experiment: competitive ELISA; coated 2ug/ml F4-127.10
T1 construct: made in HEK293E cells, purified on nickel column; also called hMSLN-FL-his; human MSLN full-length protein; not shown: His tag
T1 sequence (Q13421 other isoform, or with tags, fused parts or gaps): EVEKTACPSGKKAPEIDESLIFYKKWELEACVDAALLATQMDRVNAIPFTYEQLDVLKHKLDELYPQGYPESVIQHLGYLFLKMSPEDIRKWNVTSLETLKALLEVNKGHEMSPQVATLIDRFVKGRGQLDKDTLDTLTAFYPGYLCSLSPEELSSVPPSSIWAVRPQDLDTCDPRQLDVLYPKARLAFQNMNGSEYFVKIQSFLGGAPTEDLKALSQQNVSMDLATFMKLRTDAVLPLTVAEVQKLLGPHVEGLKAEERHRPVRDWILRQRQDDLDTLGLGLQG
Please respond with the number in % and leave the unit unwritten.

Below are worked cases with known answers.
{"binder": "S009-F3.80.22 (antibody, human IgG1, kappa, V domains shown, human-murine chimeric antibody, human IgG1/kappa constant regions) VH: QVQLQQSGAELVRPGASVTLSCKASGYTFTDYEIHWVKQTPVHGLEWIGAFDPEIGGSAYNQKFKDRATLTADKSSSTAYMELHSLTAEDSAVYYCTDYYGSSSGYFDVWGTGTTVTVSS VL: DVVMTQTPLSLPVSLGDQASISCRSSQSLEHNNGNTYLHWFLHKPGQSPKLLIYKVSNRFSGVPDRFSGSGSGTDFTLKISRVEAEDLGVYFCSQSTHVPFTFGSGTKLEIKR", "competition rate / %": -22}
{"binder": "S009-F3.74.20 (antibody, human IgG1, kappa, V domains shown, human-murine chimeric antibody, human IgG1/kappa constant regions) VH: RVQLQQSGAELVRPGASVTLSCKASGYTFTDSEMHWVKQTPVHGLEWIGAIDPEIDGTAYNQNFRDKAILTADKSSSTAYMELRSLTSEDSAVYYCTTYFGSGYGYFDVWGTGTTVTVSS VL: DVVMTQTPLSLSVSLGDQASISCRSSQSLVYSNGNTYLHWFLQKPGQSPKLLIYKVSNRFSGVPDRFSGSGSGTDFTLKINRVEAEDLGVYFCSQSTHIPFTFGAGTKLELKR", "competition rate / %": 33}
{"binder": "S009-F4-127.10 (antibody, human IgG1, kappa, V domains shown, human-murine chimeric antibody, human IgG1/kappa constant regions) VH: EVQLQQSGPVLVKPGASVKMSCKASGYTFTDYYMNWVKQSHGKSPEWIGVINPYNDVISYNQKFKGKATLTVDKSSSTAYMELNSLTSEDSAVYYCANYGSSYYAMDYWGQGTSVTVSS VL: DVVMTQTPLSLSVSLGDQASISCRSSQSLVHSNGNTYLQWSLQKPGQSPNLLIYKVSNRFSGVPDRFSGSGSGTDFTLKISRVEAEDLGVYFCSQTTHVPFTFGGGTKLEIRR", "competition rate / %": 16}

Per the records, this binder ( S009-F3.45.21 (antibody, human IgG1, kappa, V domains shown, human-murine chimeric antibody, human IgG1/kappa constant regions) VH: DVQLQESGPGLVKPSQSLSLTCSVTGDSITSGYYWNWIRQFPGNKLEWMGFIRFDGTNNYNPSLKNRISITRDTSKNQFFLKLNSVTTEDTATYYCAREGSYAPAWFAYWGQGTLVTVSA VL: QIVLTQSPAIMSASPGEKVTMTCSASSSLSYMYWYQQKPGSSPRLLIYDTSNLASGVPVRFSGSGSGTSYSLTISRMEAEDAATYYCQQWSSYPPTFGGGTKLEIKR ) has competition rate equal to 37
